# System: PCTK2
# Construct: gene CDK17
# measurement-conditions: concentration: 1 μM, replicates: in singlicate; n = 1;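 note: KINOMEscan kinase panel screen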
metric-name: %Inh (%)
Reply numerically in %, unit not repeated.

Note to self: %Inh recorded for Nc1nc(-c2ccc3c(N)n[nH]c3c2)cc(N2CCCCC2)n1 was 0

Note to self: %Inh recorded for CCCc1ccc(S(=O)(=O)NC2CCN(c3ccnc(Nc4ccc(OC)cc4)n3)C2)cc1 (stereo not drawn) was 0

Note to self: %Inh recorded for NC(=O)c1sc(-n2cnc3ccccc32)cc1OCc1ccccc1F was 0

Note to self: %Inh recorded for CSc1ccc(NC2=C(c3ccccc3Cl)C(=O)NC2=O)cc1 was 31

Note to self: %Inh recorded for Nc1nc(-c2cccnc2)c(-c2ccnc3ccccc23)s1 was 0

Note to self: %Inh recorded for CC(C)(C)OC(=O)NC1CCCN(c2cc(-c3ccc4c(N)n[nH]c4c3)nc(N)n2)C1 (stereo not drawn) was 6

Note to self: %Inh recorded for Clc1ccc(-c2cc(-c3c[nH]nc3-c3ccccn3)ccn2)cc1 was 0

Note to self: %Inh recorded for Cl.c1ccc(Cn2ncc3cc(Nc4ncnc5ccccc45)ccc32)cc1 was 0

Note to self: %Inh recorded for O=C(NCCCN1CCCC1=O)c1cnc(NCc2cc(Cl)ccc2Cl)nc1NC1CCNCC1 was 0

###

Exercise: state measured %Inh for each of the compounds provided.
# System: CDK3
# measurement-conditions: concentration: 1 μM, replicates: in singlicate; n = 1
Reply numerically in %, unit not repeated.

Note to self: %Inh recorded for Cc1ccc(C)c(NC(=O)NCCNc2ccnc(Nc3ccc(F)cc3)n2)c1 was 0

Note to self: %Inh recorded for COc1cc2c(Nc3cccc(NC(=O)c4ccccc4)c3)ncnc2cc1OCCCN1CCOCC1 was 5

Note to self: %Inh recorded for Cc1ccc(NC(=O)c2cccc(C#N)c2)cc1-c1ccc(C(=O)Nc2ccncc2)cc1 was 7

Note to self: %Inh recorded for CN1c2ccc(-c3ccc(C(=O)NCCO)cc3)cc2-c2[nH]ncc2S1(=O)=O was 0

Note to self: %Inh recorded for C[C@@H]1CCN(C(=O)CO)C[C@@H]1N(C)c1ncnc2[nH]ccc12 was 0

Note to self: %Inh recorded for O=C(NCCCN1CCCC1=O)c1cnc(NCc2cc(Cl)ccc2Cl)nc1NC1CCNCC1 was 2

Note to self: %Inh recorded for CC(C)(C)OC(=O)NC1CCCN(c2cc(-c3ccc4c(N)n[nH]c4c3)nc(N)n2)C1 (stereo not drawn) was 0

Note to self: %Inh recorded for FC(F)(F)c1ccc(-c2cc(-c3c[nH]nc3-c3ccccn3)ccn2)cc1 was 20

Note to self: %Inh recorded for CS(=O)(=O)CCNCc1ccc(-c2ccc3ncnc(Nc4ccc(OCc5ccccc5)c(Cl)c4)c3c2)o1.Cl was 10

###

Exercise: state measured %Inh for each of the compounds provided.
# Tested on: ULK2
# measurement-conditions: concentration: 1 μM, replicates: in singlicate; n = 1
Reply numerically in %, unit not repeated.

Note to self: %Inh recorded for CSc1nn2c(=O)cc(N3CCOCC3)nc2n1Cc1cccc(Cl)c1Cl was 0

Note to self: %Inh recorded for COC(=O)c1c(-c2ccccc2)c2cc(Cl)ccc2c(=O)n1Cc1ccc(S(C)(=O)=O)cc1 was 0

Note to self: %Inh recorded for Cc1cc(N2CCC(NS(=O)(=O)c3ccc(F)cc3)CC2)nc(Nc2cccc(C#N)c2)n1.O=C(O)C(F)(F)F was 0

Note to self: %Inh recorded for Cl.Cl.c1ccc(-c2cc3ccncc3cc2OC2CCNCC2)cc1 was 0

Note to self: %Inh recorded for NC(=O)c1sc(-n2cnc3ccccc32)cc1OCc1ccccc1F was 0

Note to self: %Inh recorded for O=C(NCCCN1CCCC1=O)c1cnc(NCc2cc(Cl)ccc2Cl)nc1NC1CCNCC1 was 0

Note to self: %Inh recorded for Cl.c1ccc(Cn2ncc3cc(Nc4ncnc5ccccc45)ccc32)cc1 was 0

Note to self: %Inh recorded for Nc1nc(-c2cccnc2)c(-c2ccnc3ccccc23)s1 was 0

Note to self: %Inh recorded for COc1ccc(NC(=O)Nc2ccc(C)c(-c3ccc(C(=O)Nc4ccncc4)cc3)c2)cc1 was 0

Note to self: %Inh recorded for O=C(CCO)NCCn1ccc2ncnc(Nc3ccc(Oc4cccc(C(F)(F)F)c4)c(Cl)c3)c21 was 0

Note to self: %Inh recorded for Cc1cccc(-c2nc(Nc3ccc4[nH]nnc4c3)c3ccccc3n2)n1 was 0

Note to self: %Inh recorded for CCc1nc(-c2cccc(N(C)S(=O)(=O)c3ccccc3)c2)c(-c2ccnc(Nc3ccc(N4CCN(C(C)=O)CC4)nc3)n2)s1 was 0

Note to self: %Inh recorded for OCCOCCn1ccc2ncnc(Nc3ccc(Oc4cccc(Cl)c4)c(Cl)c3)c21 was 0

Note to self: %Inh recorded for c1ccc(-c2ccc3c(-c4ccnc(Nc5ccc6c(c5)OCCO6)n4)cnn3n2)cc1 was 0

Note to self: %Inh recorded for Cc1ccc(C)c(NC(=O)NCCNc2ccnc(Nc3ccc(F)cc3)n2)c1 was 0

Note to self: %Inh recorded for O=C(Nc1ccccc1F)NC1CCN(c2ccnc(Nc3ccc(F)cc3)n2)C1 (stereo not drawn) was 0

Note to self: %Inh recorded for CN1CCC(n2cnc(-c3ccc(F)cc3)c2-c2ccnc(NC3CCNCC3)n2)CC1 was 4

Note to self: %Inh recorded for Nc1n[nH]c2nnc(-c3ccccc3)cc12 was 0
